The following compounds are listed with their measured AC50 values.
Molecular target: Replicative DNA helicase DnaB (Mycobacterium tuberculosis)
Sequence (P9WMR3 whole entry): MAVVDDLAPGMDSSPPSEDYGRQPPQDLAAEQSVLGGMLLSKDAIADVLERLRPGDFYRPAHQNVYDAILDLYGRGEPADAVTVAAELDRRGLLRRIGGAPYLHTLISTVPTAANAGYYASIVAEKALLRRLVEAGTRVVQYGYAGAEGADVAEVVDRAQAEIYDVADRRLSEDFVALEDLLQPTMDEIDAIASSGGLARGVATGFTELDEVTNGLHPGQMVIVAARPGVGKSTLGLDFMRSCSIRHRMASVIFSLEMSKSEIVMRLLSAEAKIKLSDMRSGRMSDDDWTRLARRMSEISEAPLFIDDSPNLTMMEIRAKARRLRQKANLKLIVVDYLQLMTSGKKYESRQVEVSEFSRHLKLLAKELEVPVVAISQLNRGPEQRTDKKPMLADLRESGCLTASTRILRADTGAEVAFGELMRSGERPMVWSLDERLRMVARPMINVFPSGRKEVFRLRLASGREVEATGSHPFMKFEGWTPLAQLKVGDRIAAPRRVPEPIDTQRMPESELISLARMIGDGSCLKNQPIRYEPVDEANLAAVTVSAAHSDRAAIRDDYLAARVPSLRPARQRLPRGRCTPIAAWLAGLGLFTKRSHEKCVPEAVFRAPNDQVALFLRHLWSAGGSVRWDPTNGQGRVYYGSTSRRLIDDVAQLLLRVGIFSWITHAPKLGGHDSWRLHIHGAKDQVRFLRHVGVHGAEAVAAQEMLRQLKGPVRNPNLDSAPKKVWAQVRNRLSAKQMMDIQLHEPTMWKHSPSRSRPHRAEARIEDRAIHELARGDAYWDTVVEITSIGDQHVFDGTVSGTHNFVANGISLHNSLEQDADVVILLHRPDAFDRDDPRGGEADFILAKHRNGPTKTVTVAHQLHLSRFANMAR
Experiment: DnaB intein splicing inhibitors, dose response, biochemical, cell-free fluorescence (AID 449749)
Assay type: functional
Activity calls are given as the source filed them.

- COMPOUND: "N#Cc1cc([N+](=O)[O-])ccc1NC(=O)COC(=O)CCC1CCCCC1"
  AC50: "1.72 µM (active)"
- COMPOUND: "Cc1cc(-c2[nH]nc3c2C(c2cccc(O)c2)C(C#N)=C(N)O3)c(C)s1 (stereo unspecified)"
  AC50: "4.58 µM (active)"
- COMPOUND: "Cc1cccc(CS(=O)(=O)c2ncc(Cl)c(C(=O)Nc3c(C)cccc3C)n2)c1"
  AC50: "4.28 µM (active)"
- COMPOUND: "O=C(Nc1nc(C(F)(F)F)n[nH]1)c1cccs1"
  AC50: "3.65 µM (active)"
- COMPOUND: "CCOC(=O)CS(=O)(=O)c1nc(-c2ccccc2)cc(C(F)(F)F)n1"
  AC50: "2.9 µM (active)"
- COMPOUND: "O=S(=O)(O)Oc1c[nH]c2ccccc12"
  AC50: "1.34 µM (active)"

----------
Biological target: Paired box protein Pax-8 (Homo sapiens, UniProt Q06710)
Sequence (Q06710 whole entry): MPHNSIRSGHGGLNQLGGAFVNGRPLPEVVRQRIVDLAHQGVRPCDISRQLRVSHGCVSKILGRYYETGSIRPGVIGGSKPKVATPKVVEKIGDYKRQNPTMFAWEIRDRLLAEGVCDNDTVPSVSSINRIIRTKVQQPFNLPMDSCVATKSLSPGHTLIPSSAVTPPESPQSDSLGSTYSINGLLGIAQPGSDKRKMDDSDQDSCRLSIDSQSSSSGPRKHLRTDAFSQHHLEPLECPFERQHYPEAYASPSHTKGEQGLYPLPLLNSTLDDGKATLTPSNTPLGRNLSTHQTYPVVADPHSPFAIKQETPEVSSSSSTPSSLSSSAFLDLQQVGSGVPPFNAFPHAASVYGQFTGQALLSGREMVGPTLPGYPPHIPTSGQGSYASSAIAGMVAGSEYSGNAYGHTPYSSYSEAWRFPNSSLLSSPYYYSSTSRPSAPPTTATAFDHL
Experiment: inhibitors of PAX8-driven TPO luciferase reporter, dose response, RMG-I cells, cherry-pick (AID 687027);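 also: luciferase reporter driven by Pax8 target thyroperoxidase promoter measured by SteadyGlo luminescence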
Format: functional, cell-based
Calls of active or inactive are those of the source.
Catalogue of compounds with associated AC50
READOUT KIND: AC50

- COMPOUND: "CCN(CC)CC(C)(C)C(=O)/C=C/c1ccc(/C=C/C(=O)C(C)(C)CN(CC)CC)cc1"
  TESTED TARGET: "Paired box protein Pax-8 (Homo sapiens, UniProt Q06710)"
  TEST VALUE: "2.2 µM (active)"
- COMPOUND: "CNC[C@@H](CC1CCCCC1)NC[C@H](CC(C)C)NCCc1cccc(C(F)(F)F)c1"
  TESTED TARGET: "Paired box protein Pax-8 (Homo sapiens, UniProt Q06710)"
  TEST VALUE: "9.93 µM (active)"
- COMPOUND: "CCCC#Cc1ccc([C@@H]2[C@@H](C#N)N(C(=O)C3CCCCC3)[C@H]2CO)cc1"
  TESTED TARGET: "Paired box protein Pax-8 (Homo sapiens, UniProt Q06710)"
  TEST VALUE: "6.02 µM (active)"
- COMPOUND: "COc1ccc(N2C(=O)CC(Sc3nnnn3-c3ccc(F)cc3)C2=O)cc1 (stereo not given)"
  TESTED TARGET: "Paired box protein Pax-8 (Homo sapiens, UniProt Q06710)"
  TEST VALUE: "13.6 µM (active)"
- COMPOUND: "C=C1C(=O)O[C@@H]2[C@H]1CC[C@H](C)[C@]1(O)CCC(=O)[C@@]21C"
  TESTED TARGET: "Paired box protein Pax-8 (Homo sapiens, UniProt Q06710)"
  TEST VALUE: "5.43 µM (active)"
